targetOfAssay: AHK2 (Arabidopsis thaliana, UniProt Q9C5U2)
Sequence (Q9C5U2 whole entry): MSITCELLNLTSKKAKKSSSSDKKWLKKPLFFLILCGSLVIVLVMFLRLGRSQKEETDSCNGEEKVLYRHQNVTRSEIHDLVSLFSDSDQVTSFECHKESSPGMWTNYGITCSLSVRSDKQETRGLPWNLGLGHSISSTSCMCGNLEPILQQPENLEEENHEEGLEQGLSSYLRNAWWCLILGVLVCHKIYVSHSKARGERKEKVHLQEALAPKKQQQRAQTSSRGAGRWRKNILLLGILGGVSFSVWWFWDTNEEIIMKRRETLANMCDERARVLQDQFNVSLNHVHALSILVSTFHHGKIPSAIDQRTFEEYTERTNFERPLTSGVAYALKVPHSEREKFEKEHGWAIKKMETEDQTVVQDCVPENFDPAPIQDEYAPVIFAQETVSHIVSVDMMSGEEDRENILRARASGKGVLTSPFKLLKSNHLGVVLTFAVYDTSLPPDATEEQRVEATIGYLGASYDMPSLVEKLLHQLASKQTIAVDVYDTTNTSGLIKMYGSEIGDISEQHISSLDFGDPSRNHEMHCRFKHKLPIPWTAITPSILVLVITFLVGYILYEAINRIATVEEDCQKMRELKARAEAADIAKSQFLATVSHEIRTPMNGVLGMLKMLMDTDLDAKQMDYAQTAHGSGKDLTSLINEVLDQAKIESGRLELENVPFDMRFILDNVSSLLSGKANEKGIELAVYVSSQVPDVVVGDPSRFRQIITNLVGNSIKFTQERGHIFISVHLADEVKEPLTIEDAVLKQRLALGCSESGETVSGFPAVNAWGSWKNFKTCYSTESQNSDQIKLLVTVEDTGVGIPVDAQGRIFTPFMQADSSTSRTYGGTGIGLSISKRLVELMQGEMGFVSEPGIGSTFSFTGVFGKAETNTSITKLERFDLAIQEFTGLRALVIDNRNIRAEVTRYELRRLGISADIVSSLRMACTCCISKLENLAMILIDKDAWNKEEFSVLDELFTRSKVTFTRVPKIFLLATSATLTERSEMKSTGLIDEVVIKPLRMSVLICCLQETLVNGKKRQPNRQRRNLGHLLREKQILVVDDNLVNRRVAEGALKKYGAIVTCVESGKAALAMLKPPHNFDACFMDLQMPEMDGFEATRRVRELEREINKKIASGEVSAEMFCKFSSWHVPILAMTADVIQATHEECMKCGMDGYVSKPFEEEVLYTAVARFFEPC
method: biochemical
measurementKind: Kd (nM)
// return numeric value only (unit: nM, not printed)

State its Kd: C/C(=C\CNc1ncnc2[nH]cnc12)CO [tZ, trans-zeatin] 1.93

====

targetOfAssay: ZmHK1 (Zea mays, UniProt Q9FRY7)
Sequence (Q9FRY7 1-974): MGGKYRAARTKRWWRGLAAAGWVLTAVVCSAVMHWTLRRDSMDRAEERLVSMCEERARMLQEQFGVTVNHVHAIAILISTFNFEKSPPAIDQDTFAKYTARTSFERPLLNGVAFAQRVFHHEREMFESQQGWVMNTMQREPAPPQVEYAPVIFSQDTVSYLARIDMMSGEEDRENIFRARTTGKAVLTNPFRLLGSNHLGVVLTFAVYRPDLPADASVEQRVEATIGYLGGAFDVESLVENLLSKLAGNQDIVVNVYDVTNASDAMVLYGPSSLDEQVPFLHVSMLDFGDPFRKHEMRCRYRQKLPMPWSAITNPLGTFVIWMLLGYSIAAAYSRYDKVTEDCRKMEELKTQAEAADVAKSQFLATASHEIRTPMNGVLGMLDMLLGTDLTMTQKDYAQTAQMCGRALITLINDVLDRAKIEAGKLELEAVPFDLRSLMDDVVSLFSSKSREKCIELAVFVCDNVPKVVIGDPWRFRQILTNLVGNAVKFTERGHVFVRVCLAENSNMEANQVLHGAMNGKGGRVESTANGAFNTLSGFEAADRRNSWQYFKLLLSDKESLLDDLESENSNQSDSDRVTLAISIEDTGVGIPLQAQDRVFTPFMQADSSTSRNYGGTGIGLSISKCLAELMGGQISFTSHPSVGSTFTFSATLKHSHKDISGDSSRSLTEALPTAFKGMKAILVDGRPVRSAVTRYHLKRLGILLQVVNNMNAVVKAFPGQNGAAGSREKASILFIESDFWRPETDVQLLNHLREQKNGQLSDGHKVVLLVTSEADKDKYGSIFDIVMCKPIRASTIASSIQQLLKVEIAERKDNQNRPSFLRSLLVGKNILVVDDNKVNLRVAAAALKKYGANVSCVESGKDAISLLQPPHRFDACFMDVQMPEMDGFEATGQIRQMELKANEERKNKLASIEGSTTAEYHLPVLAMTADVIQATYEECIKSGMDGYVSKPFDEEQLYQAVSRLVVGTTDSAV
method: competition with [3H]tZ, plant microsomes
Assay type: binding
Parameters: full-length coding region in pB7FWG2-ZmHK1, C-terminal eGFP fusion, transiently expressed in Nicotiana benthamiana leaves, microsomes
studyConditions: pH 7.4, 0-4 °C
measurementKind: Kd (µM)
// return numeric value only (unit: µM, not printed)

Give Kd only, for C[C@H](CO)CCNc1ncnc2nc[nH]c12 [DZ, dihydrozeatin] , using ZmHK1 (Zea mays, UniProt Q9FRY7) data. 0.128

Give Kd only, for CC(C)=CCNc1ncnc2nc[nH]c12 , using ZmHK1 (Zea mays, UniProt Q9FRY7) data. 0.00061

====

targetOfAssay: ZmHK1 (Zea mays, UniProt Q9FRY7)
method: biochemical
measurementKind: pKd
For clarity, pKd is expressed as the negative log10 of concentration in mol/L.

Give pKd only, for C/C(=C\CNc1ncnc2[nH]cnc12)CO [tZ, trans-zeatin] , using ZmHK1 (Zea mays, UniProt Q9FRY7) data. 8.10

====

targetOfAssay: AHK4 (Arabidopsis thaliana, UniProt Q9C5U0)
Sequence (Q9C5U0 whole entry): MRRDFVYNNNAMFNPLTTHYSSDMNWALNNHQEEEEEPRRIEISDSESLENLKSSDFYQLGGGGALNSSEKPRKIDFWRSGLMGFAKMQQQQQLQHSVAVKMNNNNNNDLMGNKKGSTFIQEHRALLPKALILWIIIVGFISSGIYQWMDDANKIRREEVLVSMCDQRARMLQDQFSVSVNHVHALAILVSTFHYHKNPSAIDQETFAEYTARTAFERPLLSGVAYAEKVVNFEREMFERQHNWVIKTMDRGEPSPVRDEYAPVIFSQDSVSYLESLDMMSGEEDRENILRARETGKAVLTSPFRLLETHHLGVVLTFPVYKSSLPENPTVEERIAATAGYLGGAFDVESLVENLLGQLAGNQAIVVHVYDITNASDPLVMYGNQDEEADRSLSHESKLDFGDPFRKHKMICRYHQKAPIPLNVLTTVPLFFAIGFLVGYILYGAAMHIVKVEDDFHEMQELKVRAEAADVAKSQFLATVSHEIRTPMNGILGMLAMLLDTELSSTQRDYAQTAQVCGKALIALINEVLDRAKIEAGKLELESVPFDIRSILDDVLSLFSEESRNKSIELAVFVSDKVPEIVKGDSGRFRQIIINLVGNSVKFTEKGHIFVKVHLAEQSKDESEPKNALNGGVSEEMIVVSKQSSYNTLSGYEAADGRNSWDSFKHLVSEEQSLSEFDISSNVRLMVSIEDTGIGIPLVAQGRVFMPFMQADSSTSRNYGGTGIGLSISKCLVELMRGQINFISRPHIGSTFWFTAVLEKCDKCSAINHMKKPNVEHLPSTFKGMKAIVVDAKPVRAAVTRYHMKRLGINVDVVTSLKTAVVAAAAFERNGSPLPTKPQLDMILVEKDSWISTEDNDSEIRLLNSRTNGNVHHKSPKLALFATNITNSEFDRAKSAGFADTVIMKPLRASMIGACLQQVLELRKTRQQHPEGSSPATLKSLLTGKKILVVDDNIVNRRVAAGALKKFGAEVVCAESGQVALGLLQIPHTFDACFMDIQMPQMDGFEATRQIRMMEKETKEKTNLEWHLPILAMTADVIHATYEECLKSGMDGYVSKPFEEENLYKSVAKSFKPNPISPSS
pKd: −log10 of the molar value.
measurementKind: pKd

Give pKd only, for C/C(=C\CNc1ncnc2[nH]cnc12)CO [tZ, trans-zeatin] , using AHK4 (Arabidopsis thaliana, UniProt Q9C5U0) data. 8.10 to 8.70

====

targetOfAssay: AHK2 (Arabidopsis thaliana)
method: competition with [3H]tZ, plant microsomes
Assay type: binding
studyConditions: pH 7.4, 0-4 °C
measurementKind: Kd (µM)
// return numeric value only (unit: µM, not printed)

C[C@H](CO)CCNc1ncnc2nc[nH]c12 [DZ, dihydrozeatin] :: 0.161

State its Kd: CC(C)=CCNc1ncnc2nc[nH]c12 [iP, isopentenyladenine] 0.00142

Cited source: paper PMC4378623
